Source: ChEMBL document CHEMBL3137667

settings: human
ASSAY ENDPOINT: Hepatotoxicity (severe hepatitis)
Give bare numbers.

CC(C(=O)O)c1cccc(Oc2ccccc2)c1 (centres undefined) ... 0
CN1CCN(CC(=O)N2c3ccccc3C(=O)Nc3cccnc32)CC1 [PIRENZEPINE] ... 0

// for each compound below, give its Hepatotoxicity (severe hepatitis)
1. CC(=O)[C@]1(O)Cc2c(O)c3c(c(O)c2[C@@H](O[C@H]2C[C@H](N)[C@H](O)[C@H](C)O2)C1)C(=O)c1ccccc1C3=O
2. O=C1NC(=S)NC(=O)C1C(=O)Nc1ccccc1

1: 2; 2: 0

====

details: human, serum
Rule: Hepatotoxicity (acute) under 1 gives F, otherwise T.

These solved cases illustrate the format of a correct answer.
CCN(CC)C(=O)N1CCN(C)CC1 ... F
O=C1Nc2ccc(Cl)cc2[C@@](C#CC2CC2)(C(F)(F)F)O1 ... T
CC(CN(C)C)CN1c2ccccc2Sc2ccc(C#N)cc21 (centres undefined) ... T
Cc1ncc([N+](=O)[O-])n1CC(O)CCl (centres undefined) ... T
COCCCN1CCC(NC(=O)c2cc(Cl)c(N)c3c2OCC3)CC1 [PRUCALOPRIDE] ... F

Form field: Hepatotoxicity (acute) at least 1? Entry: [H]/N=C(/N)N[C@H]1[C@H](O)[C@@H](O)[C@H](O[C@@H]2O[C@@H](C)[C@](O)(C=O)[C@H]2O[C@@H]2O[C@@H](CO)[C@H](O)[C@@H](O)[C@@H]2NC)[C@@H](N/C(N)=N\[H])[C@@H]1O T

Kindly determine if Hepatotoxicity (acute) recorded for CC[C@H]1OC(=O)[C@H](C)C(=O)[C@H](C)[C@@H](O[C@@H]2O[C@H](C)C[C@H](N(C)C)[C@H]2O)[C@](C)(OC)C[C@@H](C)C(=O)[C@H](C)[C@H]2N(CCCCn3cnc(-c4cccnc4)c3)C(=O)O[C@]12C is above or exactly 1. F

====

test: Highest frequency of acute liver toxicity observed during clinical trials, expressed as a percentage. [column '% AIGUE' in source]; conditions: human
Assign Hepatotoxicity (acute) to each entry below.
Answers are plain numbers, in %.

Please review the entries below; each comes with its answer.
Cc1c(C)c2ccc(OCCCN3CCN(Cc4ccc(Cl)cc4)CC3)cc2oc1=O ... 0
CC(N)C(=O)OC(C)(C)Cc1ccc(Cl)cc1 (stereo unspecified) [ALAPROCLATE] ... 0

Answer for every listed entry: what is its Hepatotoxicity (acute)? The entries follow.
1. O=C(c1ccc(OCCN2CCCCC2)cc1)c1c(-c2ccc(O)cc2)sc2cc(O)ccc12 [RALOXIFENE]
2. CO/N=C(\C(=O)N[C@@H]1C(=O)N2C(C(=O)[O-])=C(C[n+]3ccc(N)n3CCO)CS[C@H]12)c1csc(N)n1 [CEFOSELIS]
3. C[C@]12COC(=O)C[C@@H]1CC[C@@H]1[C@@H]2CC[C@@]2(C)[C@H]1CC[C@]2(C)O [OXANDROLONE]
4. CCCCCNCC(N)=O [MILACEMIDE]
5. Cc1c(O)c(=O)ccn1C [DEFERIPRONE]
6. C[C@@H]1C[C@H]2[C@@H]3CCC4=CC(=O)C=C[C@]4(C)[C@@]3(F)[C@@H](O)C[C@]2(C)[C@@]1(O)C(=O)CO [DEXAMETHASONE]
7. CC(C)C[C@H](NC(=O)[C@@H](COC(C)(C)C)NC(=O)[C@H](Cc1ccc(O)cc1)NC(=O)[C@H](CO)NC(=O)[C@H](Cc1c[nH]c2ccccc12)NC(=O)[C@H](Cc1cnc[nH]1)NC(=O)[C@@H]1CCC(=O)N1)C(=O)N[C@@H](CCCNC(=N)N)C(=O)N1CCC[C@H]1C(=O)NNC(N)=O [GOSERELIN]
8. O=C1C(O)=C([C@H]2CC[C@H](c3ccc(Cl)cc3)CC2)C(=O)c2ccccc21 [ATOVAQUONE]

0
0
0
0
1.2
0
0
5.3

Recorded Hepatotoxicity (acute) for CCc1nc(N)nc(N)c1-c1ccc(Cl)cc1.Nc1ccc(S(=O)(=O)c2ccc(N)cc2)cc1 , please? 2.9

====

assay: Times to onset, minimal and maximal, observed in the indexed observations. [column 'DELAI' in source]; settings: human
ASSAY ENDPOINT: Hepatotoxicity (time to onset)

OC[C@H]1O[C@@H](n2cnc3c2NC=NC[C@H]3O)C[C@@H]1O ... 1 day - 2 months
CCCNCC(O)COc1ccccc1C(=O)CCc1ccccc1 (stereo not given) ... 6 days - 16 months
CCCCNc1cc(C(=O)O)cc(S(N)(=O)=O)c1Oc1ccccc1 [BUMETANIDE] ... 2 weeks - 6 months
Cc1c(N(C)C)c(=O)n(-c2ccccc2)n1C ... 3 months

What measured Hepatotoxicity (time to onset) goes with NCC(CC(=O)O)c1ccc(Cl)cc1 (stereo not given) ? 3 weeks - 2 months

====

Could you please report measured Hepatotoxicity (chronic liver disease) for the items listed next?
details: human, serum, 4383 h

Some solved cases for reference:
CN1CCC(=C2c3ccccc3C=Cc3ccccc32)CC1 [CYPROHEPTADINE] ... 0
C[C@H]1O[C@H](O[C@H]2[C@H](O)[C@@H](O)[C@@H](O[C@H]3[C@H](O)[C@@H](O)C(O)O[C@@H]3CO)O[C@@H]2CO)[C@H](O)[C@@H](O)[C@@H]1N[C@H]1C=C(CO)[C@@H](O)[C@H](O)[C@H]1O (stereo partly drawn) [ACARBOSE] ... 0

Shift focus to the following entry.
Fill blank: measured Hepatotoxicity (chronic liver disease) of the compound COC1=C(C(=O)O)N2C(=O)[C@@H](NC(=O)[C@H](N)C3=CCC=CC3)[C@H]2SC1 [CEFROXADINE] is ____. 0

====

conditions: human, serum
Would you mind telling me the reported Hepatotoxicity (moderate) of each entry?
One number for each entry.

A selection of reference data follows.
CCc1cc2c(s1)N(C)C(=O)CN=C2c1ccccc1Cl ... 0
Fc1ccc(C(c2ccc(F)cc2)N2CCN(C/C=C/c3ccccc3)CC2)cc1 ... 1
COCCc1ccc(OCC(O)CNC(C)C)cc1 (stereo not drawn) ... 3
CCOC(=O)c1c(N)sc2c1CCN(Cc1ccccc1)C2 ... 1
COc1ccc2cc(CCC(C)=O)ccc2c1 ... 8
Nc1nc(N)nc(Nc2ccc([As]3SCC(CO)S3)cc2)n1 (stereo not drawn) ... 3
O=C(O)COc1ccc(C(=O)c2cccs2)c(Cl)c1Cl ... 9
CN(C)CCc1c[nH]c2ccc(C[C@H]3COC(=O)N3)cc12 ... 1
CC(C)[N+](C)(CCC(C(N)=O)(c1ccccc1)c1ccccc1)C(C)C [ISOPROPAMIDE] ... 0
CC(C)NCC(O)COc1ccc(COCCOC(C)C)cc1 (stereo not drawn) ... 3

# per-item lookup of Hepatotoxicity (moderate); items listed below
1. c1cnc(N2CCN(Cc3ccc4c(c3)OCO4)CC2)nc1
2. Clc1ccc(C(Cn2ccnc2)OCc2ccsc2Cl)c(Cl)c1 (stereo not drawn)
3. CC(N)C(=O)OC(C)(C)Cc1ccc(Cl)cc1 (stereo not drawn) [ALAPROCLATE]

2
1
1

====

settings: human
Please use condition met whenever Hepatotoxicity (cytolytic) is not below 1, and condition not met whenever it is.

Cc1cc(=O)n(-c2ccccc2)n1C [ANTIPYRINE] ... condition not met
CCn1cc(C(=O)O)c(=O)c2cnc(N3CCNCC3)nc21 ... condition not met
O=C(O)Cc1cn(-c2ccccc2)nc1-c1ccc(Cl)cc1 ... condition not met
CNC(=O)OCc1cccc(COC(=O)NC)n1 [PYRICARBATE] ... condition met
CCc1oc2ccccc2c1C(=O)c1ccc(O)cc1 ... condition met

Can N=C(N)NCCCCCCC(=O)NC(O)C(=O)NCCCCNCCCN (configuration not stated) be said to have Hepatotoxicity (cytolytic) at or above 1? condition not met

Decide: is the reported value of Hepatotoxicity (cytolytic) for Cc1ncc([N+](=O)[O-])n1CC(O)CCl (configuration not stated) equal to or greater than 1? condition met

Decide: is the reported value of Hepatotoxicity (cytolytic) for CN(Cc1cc(Br)cc(Br)c1N)C1CCCCC1 equal to or greater than 1? condition not met

Has CC1=C(C/C=C(\C)CCC[C@H](C)CCC[C@H](C)CCCC(C)C)C(=O)c2ccccc2C1=O a recorded Hepatotoxicity (cytolytic) greater than or equal to 1? condition not met

Record CN(C)CCOC1=Cc2ccccc2Sc2ccc(Cl)cc21 [ZOTEPINE] ; criterion: Hepatotoxicity (cytolytic) no lower than 1. Met? condition not met

Has CCN(CC)CCCN(c1ccccc1)C1Cc2ccccc2C1 a recorded Hepatotoxicity (cytolytic) greater than or equal to 1? condition met

Form field: Hepatotoxicity (cytolytic) at least 1? Entry: Cc1c(C)c2c(c(C)c1O)CCC(C)(COc1ccc(CC3SC(=O)NC3=O)cc1)O2 (configuration not stated) condition met

Can CCOc1ccc(NC(C)=O)cc1 be said to have Hepatotoxicity (cytolytic) at or above 1? condition not met

Could you please find out whether CC/C(=C(/CC)c1ccc(OP(=O)(O)O)cc1)c1ccc(OP(=O)(O)O)cc1 [DIETHYLSTILBESTROL DIPHOSPHATE] has Hepatotoxicity (cytolytic) that meets 1 or exceeds it? condition not met

Threshold query (Hepatotoxicity (cytolytic) >= 1) on CCOC(=O)C1=C(COCCN)NC(C)=C(C(=O)OC)C1c1ccccc1Cl (configuration not stated) condition met
